IC50: recorded values
biological target: MDM2 (Homo sapiens, UniProt Q00987); construct: 20 nM GST-MDM2 protein (aa 23-117); assay: Mdm2-p53 Inhibition AlphaScreen; type: binding; conditions: 20 nM GST-MDM2 protein (aa 23-117), 20 nM biotinylated p53 wt peptide
Sequence (Q00987 23-117): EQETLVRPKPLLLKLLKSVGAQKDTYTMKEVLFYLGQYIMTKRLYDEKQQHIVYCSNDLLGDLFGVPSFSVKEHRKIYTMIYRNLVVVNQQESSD
property: IC50 (nM)

* CCOC(=O)c1ccc([C@H]2C[C@H]3[C@@H](N2)[C@H](c2cccc(Cl)c2F)[C@]2(C(=O)Nc4cc(Cl)c(F)cc42)N3CC2CC2)cc1 | 623
* O=C(O)C[C@@H]1C[C@H]2[C@@H](N1)[C@H](c1cccc(Cl)c1)[C@]1(C(=O)Nc3cc(Cl)ccc31)N2CC1CC1 | 280
* CCOc1cccc(CN2[C@H]3CCN(Cc4cn[nH]c4C(=O)O)[C@H]3[C@H](c3cccc(Cl)c3F)[C@]23C(=O)Nc2cc(Cl)ccc23)c1 | 29
* O=C(CCO)N1CC[C@H]2C1[C@H](c1cccc(Cl)c1F)[C@]1(C(=O)Nc3cc(Cl)ccc31)N2CC1CC1 (stereo partly shown) | 102
* O=C1Nc2nc(Cl)ccc2[C@@]12[C@@H](c1cccc(Cl)c1F)[C@@H]1NCC[C@@H]1N2CC1CC1 | 871
* COCC(=O)N1CC[C@H]2C1[C@H](c1cccc(Cl)c1F)[C@]1(C(=O)Nc3cc(Cl)ccc31)N2CC1CC1 (stereo partly shown) | 119
* O=C(O)c1cccc(C(=O)N2CC[C@H]3C2[C@H](c2cccc(Cl)c2F)[C@]2(C(=O)Nc4cc(Cl)ccc42)N3CC2CC2)c1 (stereo partly shown) | 377
* O=C(O)C1CCC(CN2CC[C@H]3[C@@H]2[C@H](c2cccc(Cl)c2F)[C@]2(C(=O)Nc4cc(Cl)ccc42)N3CC2CC2)CC1 (stereo partly shown) | 274
* CC(=O)Nc1ccc(C(=O)N2CC[C@H]3C2[C@H](c2cccc(Cl)c2F)[C@]2(C(=O)Nc4cc(Cl)ccc42)N3CC2CC2)c(C)c1 (stereo partly shown) | 444
* O=C(O)c1ccc([C@@H]2CC[C@H]3[C@@H](N2)[C@H](c2cccc(Cl)c2F)[C@]2(C(=O)Nc4cc(Cl)ccc42)N3CC2CC2)cc1 | 133

This collection of values is drawn from patent US10138251B2.
